Biological target: Fibroblast growth factor 2 (Homo sapiens) (UniProt P09038)
Sequence (P09038 whole entry, looked up): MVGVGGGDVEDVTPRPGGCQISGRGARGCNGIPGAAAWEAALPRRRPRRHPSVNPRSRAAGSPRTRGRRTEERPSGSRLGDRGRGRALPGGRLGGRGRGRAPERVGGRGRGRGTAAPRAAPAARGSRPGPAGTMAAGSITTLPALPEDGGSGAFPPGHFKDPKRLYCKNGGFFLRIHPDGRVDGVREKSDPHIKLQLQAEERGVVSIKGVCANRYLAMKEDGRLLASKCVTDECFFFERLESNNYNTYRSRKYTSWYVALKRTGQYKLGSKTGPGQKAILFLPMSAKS
Test: FGF2 binders on small-molecule microarrays, primary screen, biochemical, small-molecule microarray, 635/667 nm fluorescence (AID 1133)
Conditions: small-molecule microarray binding, FGF2, fluorescence 635/667; higher = more signal
Please assign a class to every record based on measured composite z-score, with ranges low = under -0.004, medium = from -0.004 up to 0.5, high = 0.5 and over

compound | tgt | assigned_category
COc1ccc(C(=O)Nc2cccc(CN3C(=O)[C@]4(O[C@H](CCn5cc([C@H](O)c6ccccc6)nn5)[C@@H]([Si](C)(C)c5ccc(OC)cc5)[C@@H]4C)c4ccccc43)c2)cc1 | Fibroblast growth factor 2 (Homo sapiens) (UniProt P09038) | medium
C=CCC(OC(C)=O)[C@@H]1[C@@H](N(Cc2ccc(-c3cccc(C(F)(F)F)c3)o2)C(=O)c2ccc(C)cc2)c2cc(OCCCO)ccc2N1C(=O)Cc1ccc(OC)cc1 (stereo partly specified) | Fibroblast growth factor 2 (Homo sapiens) (UniProt P09038) | low
COc1cc2c(cc1OC)CN(C(=O)[C@@H]1[C@H]3C(=O)O[C@H](c4ccccc4)[C@H](c4ccccc4)N3[C@H](c3ccc(O)cc3)[C@@]13C(=O)Nc1ccc(C#CCCO)cc13)CC2 | Fibroblast growth factor 2 (Homo sapiens) (UniProt P09038) | high
O=C1c2ccccc2[C@](Cc2ccccc2I)(C(=O)NC2CC2)[C@H](c2ccc(CO)cc2)N1Cc1ccccc1C(F)(F)F | Fibroblast growth factor 2 (Homo sapiens) (UniProt P09038) | medium
CC1CC/C=C\[C@H]2OC34C=CCN(CCN5CCOCC5)C(=O)[C@H]3N(C(C)CO)C(=O)[C@@H]4C2C(=O)O1 (stereo partly specified) | Fibroblast growth factor 2 (Homo sapiens) (UniProt P09038) | low
Cc1ccc(N2C(=O)c3ccccc3[C@](C)(C(=O)NCc3ccccc3)[C@@H]2c2ccc(CO)cc2)nc1 | Fibroblast growth factor 2 (Homo sapiens) (UniProt P09038) | medium
COc1cc(NN2C(C(O)C3CCCCC3)C=CC3C(=O)N(c4ccccc4)C(=O)C32)cc(OC)c1OC (stereo unspecified) | Fibroblast growth factor 2 (Homo sapiens) (UniProt P09038) | low
[N-]=[N+]=NCc1ccccc1[C@@H]1OC(c2ccc(OCCCO)cc2)=N[C@]1(Cc1ccccc1)C(=O)NCCN1CCOCC1 | Fibroblast growth factor 2 (Homo sapiens) (UniProt P09038) | medium
COc1ccc([Si](C)(C)[C@H]2[C@H](CC(=O)N3Cc4ccccc4C[C@H]3CO)O[C@@]3(C(=O)N(Cc4ccc(N5C(=O)c6cccc7cccc5c67)cc4)c4ccccc43)[C@@H]2C)cc1 | Fibroblast growth factor 2 (Homo sapiens) (UniProt P09038) | high
COCCOC(=O)N1C(=O)[C@@]2(c3cc(C#CC4=CCCCC4)ccc31)[C@H](C(=O)N1CCCCCCC1)[C@H]1C(=O)O[C@H](c3ccccc3)[C@H](c3ccccc3)N1[C@@H]2c1ccc(OCCO)cc1 | Fibroblast growth factor 2 (Homo sapiens) (UniProt P09038) | medium
CCCCC(=O)N(CCN1CCOCC1)[C@@H]1CC(C(=O)NCCO)=C[C@H](Oc2c(I)cc(CO)cc2OC)[C@H]1O | Fibroblast growth factor 2 (Homo sapiens) (UniProt P09038) | high
Cc1ccc(S[C@]2(C(=O)NC(C)C)CC(=O)N(Cc3ccccc3Cl)[C@@H]2c2ccc(CO)cc2)cc1 | Fibroblast growth factor 2 (Homo sapiens) (UniProt P09038) | low
CCOC(=O)C1=CCC(c2ccco2)N(S(=O)(=O)c2ccc(C)cc2)C1 (stereo unspecified) | Fibroblast growth factor 2 (Homo sapiens) (UniProt P09038) | medium
COC(=O)[C@@]1(Cc2ccc(F)cc2)[C@H]2c3cc(C(=O)N4CCCC4)n(CC4CC4)c3C[C@H]2CN1C(=O)c1ccccc1 | Fibroblast growth factor 2 (Homo sapiens) (UniProt P09038) | medium
C=CCC(OC(C)=O)[C@@H]1[C@@H](N(Cc2cccc3ccccc23)C(=O)c2cccc3ccccc23)c2cc(OCCCO)ccc2N1C(=O)c1ccc2ccccc2c1 (stereo partly specified) | Fibroblast growth factor 2 (Homo sapiens) (UniProt P09038) | medium
COC(=O)[C@@]1(Cc2ccccc2)[C@H]2c3cc(C(=O)N(C)C)n(CCn4cc([N+](=O)[O-])nc4C)c3C[C@H]2CN1C(=O)c1ccccc1 | Fibroblast growth factor 2 (Homo sapiens) (UniProt P09038) | low
COC(=O)C(CC#Cc1ccc2c(c1)[C@]1(C(=O)N2)[C@H](c2ccc(OCCO)cc2)N2[C@H](c3ccccc3)[C@H](c3ccccc3)OC(=O)[C@H]2[C@@H]1C(=O)N1CCN(c2ncccn2)CC1)C(=O)OC | Fibroblast growth factor 2 (Homo sapiens) (UniProt P09038) | high
COCC(=C=CC[C@@H](O)c1ccc(OCCO)cc1)CCO | Fibroblast growth factor 2 (Homo sapiens) (UniProt P09038) | high
O=C1C[C@@](C(=O)NCc2ccccc2)(c2ccc([N+](=O)[O-])cc2)[C@@H](c2ccc(CO)cc2I)N1CC12CC3CC(CC(C3)C1)C2 | Fibroblast growth factor 2 (Homo sapiens) (UniProt P09038) | high
[N-]=[N+]=NCc1ccccc1[C@H]1OC(c2ccc(OCCCO)cc2)=N[C@@]1(CCS(=O)(=O)c1ccccc1)C(=O)NCc1ccccc1 | Fibroblast growth factor 2 (Homo sapiens) (UniProt P09038) | high
C=C(COC)/C(=C/C[C@@H](OC(=O)c1ccncc1)c1ccccc1OCCO)c1cc(C(=O)OC)ccc1OC | Fibroblast growth factor 2 (Homo sapiens) (UniProt P09038) | low
O=C1C2C=CC(C(O)c3ccc4c(c3)OCO4)N(Nc3ccccc3)C2C(=O)N1c1ccccc1 (stereo unspecified) | Fibroblast growth factor 2 (Homo sapiens) (UniProt P09038) | low
COCCOC(=O)N1C(=O)[C@@]2(c3cc(C#CCNC(N)=O)ccc31)[C@H](c1ccc(OCCO)cc1)N1[C@H](c3ccccc3)[C@H](c3ccccc3)OC(=O)[C@H]1[C@@H]2C(N)=O | Fibroblast growth factor 2 (Homo sapiens) (UniProt P09038) | medium
COC(=O)[C@@]1(Cc2ccc(OC)cc2)[C@H]2c3cc(C(=O)N4CCCC4)n(Cc4ccc(S(C)(=O)=O)cc4)c3C[C@H]2CN1C(=O)c1ccccc1 | Fibroblast growth factor 2 (Homo sapiens) (UniProt P09038) | low

---

Test system: PRMT1 (protein arginine N-methyltransferase 1)
Experiment: PRMT1 binders on small-molecule microarrays, primary screen, biochemical, small-molecule microarray, 635 nm fluorescence (AID 1088);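 further: binding of Prmt1 protein to compounds spotted on small-molecule microarray slides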
Conditions: small-molecule microarray binding, higher = more signal
Each entry gets not fulfilled if its composite z-score stays under 0.6, and fulfilled if its composite z-score is 0.6 or above.

compound | assigned_category
C=C[C@@H](C)[C@H](O)c1ccc(OCCO)cc1 | not fulfilled
CCN(CC)c1ccc(N2CC=CC34O[C@@H]5C=CCCOC(=O)C5[C@H]3C(=O)N(CCO)[C@@H]4C2=O)cc1 (stereo not given in full) | not fulfilled
Nc1cc(Br)ccc1C(=O)O | not fulfilled
COC(=O)c1c2oc(c1C(=O)OC)C(=O)N1CCC[C@H]1Cn1nncc1CN(Cc1ccccc1)C(=O)N[C@H](CO)CC2 | fulfilled
COc1cccc(/C=C(\C#N)C(=O)Nc2c(C)n(C)n(-c3ccccc3)c2=O)c1 | not fulfilled

---

Experiment: HepG2 cell viability effects, profiling panel, calcein-AM fluorescence, 48 h, basal (AID 1164); further: test concentration not given here
Settings: higher = more signal
observable: z-score

molecule | observable | obs_value
C=CCC(OC(C)=O)[C@@H]1[C@@H](N(Cc2ccc(-c3ccccc3)cc2)C(=O)c2ccc(C)cc2)c2cc(OCCCO)ccc2N1C(=O)Cc1ccc2ccccc2c1 (stereo partly drawn) | z-score | 0.769
COCCOC(=O)N1C(=O)[C@@]2(c3cc(C#CC4=CCCCC4)ccc31)[C@H](C(=O)N1CCCCCCC1)[C@H]1C(=O)O[C@H](c3ccccc3)[C@H](c3ccccc3)N1[C@@H]2c1ccc(OCCO)cc1 | z-score | -0.214
CCOC(=O)C1=CCC(c2ccccc2)N(S(=O)(=O)c2ccc([N+](=O)[O-])cc2)C1 (stereo not drawn) | z-score | -1.07

---

Assay: small-molecule microarray binders of probe aEGFR, primary screen, biochemical, biotinylated probe, 635/667 nm fluorescence (AID 1097);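 further: probe is a biotinylated anti-EGFR antibody binding compounds printed on slides; score combines fluorescence near 667 nm and signal to noise of each spot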
Conditions: higher = more signal
Catalogue of composite z-score values
observable: composite z-score

structure_smiles | obs_value
COCCOC(=O)N1C(=O)[C@@]2(c3cc(C#CC4=CCCCC4)ccc31)[C@H](c1ccc(O)cc1)N1[C@H](c3ccccc3)[C@H](c3ccccc3)OC(=O)[C@H]1[C@@H]2C(=O)NC[C@H](O)c1ccccc1 | 0.0397
C=C(C(=O)CC[C@H](OC(=O)c1ccccc1-c1ccccc1C(=O)O)c1ccccc1OCCO)C(C)C | -0.194
C=CC[C@H](OC(=O)Nc1ccc(SC)cc1)c1ccc(OCCO)cc1 | -0.19
CN(C)CCCNC(=O)[C@@H]1c2ccccc2C(=O)N(C2CCCCC2)[C@H]1c1ccc(CO)cc1 | 0.251
